Molecular target: Parkinson's disease protein 7 (PARK7/DJ1) (human, UniProt Q99497)
Sequence (Q99497 whole entry, looked up): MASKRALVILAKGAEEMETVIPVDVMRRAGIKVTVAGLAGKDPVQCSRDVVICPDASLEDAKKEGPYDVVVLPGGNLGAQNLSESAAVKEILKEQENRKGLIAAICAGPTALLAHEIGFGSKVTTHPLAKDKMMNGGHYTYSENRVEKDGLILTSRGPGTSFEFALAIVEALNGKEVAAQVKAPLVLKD
Assay: primary screen, percent inhibition; read as competition with a fluorescent probe by fluorescence polarization; higher = more effect of the substance
Conditions: 100 µM
About 400 (5.1%) of roughly 7,900 compounds showed an effect of 50% or more. The entries come from a sample that favours strong results as a whole.
ATTRIBUTE_MEASURED: Inhibition % (%)
Your answer should be a plain number; it is taken to be in %.

# COMPOUND, Inhibition % (%)
rows = [
    ("C=CC(=O)N1CCC(c2cc3ccccc3[nH]2)C1 (stereo not drawn)", 13.2),
]

// Input: CC1(S(=O)(=O)NC2CN(c3ccc(F)cc3)C2=O)CC1 (stereo not drawn) . Output its Inhibition % only.
10.3

// Input: C=CC(=O)N1CCc2c(F)cccc2C1 . Output its Inhibition % only.
6.26

// Input: OB(O)c1ccc(OCc2ccc(Cl)cc2)cc1 . Output its Inhibition % only.
-0.814

// Input: N#CCCN(C(=O)CCl)c1ccccc1F . Output its Inhibition % only.
33.7

// Input: CCCn1c(C)cc(C(=O)CCl)c1C . Output its Inhibition % only.
56

// Input: Cc1cccc2c(=O)[nH]c(C(Cl)=Cc3ccnn3C)nc12 . Output its Inhibition % only.
6.42

// Input: N#CC1(CCCl)CCCCC1 . Output its Inhibition % only.
3.15

// Input: C=CC(=O)NCc1cccc(C(=O)NC(C)(C)C)c1 . Output its Inhibition % only.
9.53
